target-desc: Thrombin, from Human Plasma, high activity (human, UniProt P00734 328-622)
assay-remarks: cell-based or functional assay
Bridges are numbered along the chain shown (N, C = ends). [ ]: non-standard residue; d: D form. AlloThr = allo threonine
# % inhibition at 100 µM >= 4% gives Y, anything below gives N

binder	label-value
XCTASXPPQCY (HELM PEPTIDE1{[Nle].C.T.A.S.[CCCCCCCC[C@H](N[*:1])C(=O)[*:2]].P.P.Q.C.Y.[dP].P}$PEPTIDE1,PEPTIDE1,2:R3-10:R3|PEPTIDE1,PEPTIDE1,1:R1-13:R2$$$V2.0; SMILES CCCCCCCC[C@@H]1NC(=O)[C@H](CO)NC(=O)[C@H](C)NC(=O)[C@H]([C@@H](C)O)NC(=O)[C@@H]2CSSC[C@H](NC(=O)[C@H](CCC(N)=O)NC(=O)[C@@H]3CCCN3C(=O)[C@@H]3CCCN3C1=O)C(=O)N[C@@H](Cc1ccc(O)cc1)C(=O)N1CCC[C@@H]1C(=O)N1CCC[C@H]1C(=O)N[C@@H](CCCC)C(=O)N2) [Example 81]	Y
ICTKSDPPXCR (HELM PEPTIDE1{I.C.T.K.S.D.P.P.[Cha].C.R.[dP].P}$PEPTIDE1,PEPTIDE1,2:R3-10:R3|PEPTIDE1,PEPTIDE1,1:R1-13:R2$$$V2.0; SMILES CC[C@H](C)[C@@H]1NC(=O)[C@@H]2CCCN2C(=O)[C@H]2CCCN2C(=O)[C@H](CCCNC(=N)N)NC(=O)[C@@H]2CSSC[C@H](NC1=O)C(=O)N[C@@H]([C@@H](C)O)C(=O)N[C@@H](CCCCN)C(=O)N[C@@H](CO)C(=O)N[C@@H](CC(=O)O)C(=O)N1CCC[C@H]1C(=O)N1CCC[C@H]1C(=O)N[C@@H](CC1CCCCC1)C(=O)N2) [Example 58]	Y
ICTKSDPPQCR (HELM PEPTIDE1{I.C.T.K.S.D.P.P.Q.C.R.[dP].P}$PEPTIDE1,PEPTIDE1,2:R3-10:R3|PEPTIDE1,PEPTIDE1,1:R1-13:R2$$$V2.0; SMILES CC[C@H](C)[C@@H]1NC(=O)[C@@H]2CCCN2C(=O)[C@H]2CCCN2C(=O)[C@H](CCCNC(=N)N)NC(=O)[C@@H]2CSSC[C@H](NC1=O)C(=O)N[C@@H]([C@@H](C)O)C(=O)N[C@@H](CCCCN)C(=O)N[C@@H](CO)C(=O)N[C@@H](CC(=O)O)C(=O)N1CCC[C@H]1C(=O)N1CCC[C@H]1C(=O)N[C@@H](CCC(N)=O)C(=O)N2) [Example 17]	N
ICTKSDPPXCR (HELM PEPTIDE1{I.C.T.K.S.D.P.P.[Cha].C.R.[dP].P}$PEPTIDE1,PEPTIDE1,2:R3-10:R3|PEPTIDE1,PEPTIDE1,1:R1-13:R2$$$V2.0; SMILES CC[C@H](C)[C@@H]1NC(=O)[C@@H]2CCCN2C(=O)[C@H]2CCCN2C(=O)[C@H](CCCNC(=N)N)NC(=O)[C@@H]2CSSC[C@H](NC1=O)C(=O)N[C@@H]([C@@H](C)O)C(=O)N[C@@H](CCCCN)C(=O)N[C@@H](CO)C(=O)N[C@@H](CC(=O)O)C(=O)N1CCC[C@H]1C(=O)N1CCC[C@H]1C(=O)N[C@@H](CC1CCCCC1)C(=O)N2) [Example 20]	Y
FCTKSDPPICS (HELM PEPTIDE1{F.C.T.K.S.D.P.P.I.C.S.[dP].D}$PEPTIDE1,PEPTIDE1,2:R3-10:R3|PEPTIDE1,PEPTIDE1,1:R1-13:R2$$$V2.0; SMILES CC[C@H](C)[C@@H]1NC(=O)[C@@H]2CCCN2C(=O)[C@@H]2CCCN2C(=O)[C@H](CC(=O)O)NC(=O)[C@H](CO)NC(=O)[C@H](CCCCN)NC(=O)[C@H]([C@@H](C)O)NC(=O)[C@@H]2CSSC[C@H](NC1=O)C(=O)N[C@@H](CO)C(=O)N1CCC[C@@H]1C(=O)N[C@@H](CC(=O)O)C(=O)N[C@@H](Cc1ccccc1)C(=O)N2) [Example 47]	N
cyclo(FCTK[AlloThr]DPPICS[dP]P) (disulfide 2-10) [Example 24]	N
XCTKSDPPICD (HELM PEPTIDE1{[O=C([C@@H](N[*:1])C1CCCCC1)[*:2]].C.T.K.S.D.P.P.I.C.D.[dP].P}$PEPTIDE1,PEPTIDE1,2:R3-10:R3|PEPTIDE1,PEPTIDE1,1:R1-13:R2$$$V2.0; SMILES CC[C@H](C)[C@@H]1NC(=O)[C@@H]2CCCN2C(=O)[C@@H]2CCCN2C(=O)[C@H](CC(=O)O)NC(=O)[C@H](CO)NC(=O)[C@H](CCCCN)NC(=O)[C@H]([C@@H](C)O)NC(=O)[C@@H]2CSSC[C@H](NC1=O)C(=O)N[C@@H](CC(=O)O)C(=O)N1CCC[C@@H]1C(=O)N1CCC[C@H]1C(=O)N[C@@H](C1CCCCC1)C(=O)N2) [Example 39]	N
ICTKSDPPXCR (HELM PEPTIDE1{I.C.T.K.S.D.P.P.[Nle].C.R.[dP].P}$PEPTIDE1,PEPTIDE1,2:R3-10:R3|PEPTIDE1,PEPTIDE1,1:R1-13:R2$$$V2.0; SMILES CCCC[C@@H]1NC(=O)[C@@H]2CCCN2C(=O)[C@@H]2CCCN2C(=O)[C@H](CC(=O)O)NC(=O)[C@H](CO)NC(=O)[C@H](CCCCN)NC(=O)[C@H]([C@@H](C)O)NC(=O)[C@@H]2CSSC[C@H](NC1=O)C(=O)N[C@@H](CCCNC(=N)N)C(=O)N1CCC[C@@H]1C(=O)N1CCC[C@H]1C(=O)N[C@@H]([C@@H](C)CC)C(=O)N2) [Example 57]	Y
